Listing of recorded IC50 by entry.
# system-under-test: UniProt P21730
# Sequence (P21730 1-350): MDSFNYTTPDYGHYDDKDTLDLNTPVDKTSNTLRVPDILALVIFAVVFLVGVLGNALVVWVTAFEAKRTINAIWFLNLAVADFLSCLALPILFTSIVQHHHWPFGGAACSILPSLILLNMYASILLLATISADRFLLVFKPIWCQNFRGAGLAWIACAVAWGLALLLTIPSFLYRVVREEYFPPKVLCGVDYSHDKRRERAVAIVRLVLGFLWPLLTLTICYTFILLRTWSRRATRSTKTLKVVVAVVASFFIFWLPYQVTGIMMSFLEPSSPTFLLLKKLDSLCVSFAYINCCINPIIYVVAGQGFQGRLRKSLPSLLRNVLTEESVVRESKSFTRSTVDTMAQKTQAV
# assay-explanation: In vitro assay: antagonism of C5a-induced beta-arrestin recruitment (PathHunter) in CHO-K1 C5AR1 beta-arrestin cell line
# experimental-conditions: antagonistic activity, 1-10 nM C5a agonist, geometric mean where several measurements, read-out: C5aR IC50

{"columns": ["molecule", "system-under-test", "IC50, nM"],
 "data": [
  ["CCn1cc2c(n1)N(Cc1ccccc1C(F)(F)F)C(=O)N(C1CCN(c3c(C)cccc3F)CC1)C2", "UniProt P21730", 8],
  ["COc1nccc(C(F)F)c1N1CCC(N2C(=O)N(Cc3ccccc3C(F)(F)F)c3n[nH]cc3C2C)CC1 (single isomer, unassigned) [Example 352]", "UniProt P21730", 11],
  ["CCn1cc2c(n1)CN(C1CCN(c3c(C)cccc3F)CC1)C(=O)N2Cc1ccccc1C(F)(F)F", "UniProt P21730", 30],
  ["CC1c2c[nH]nc2N(Cc2ccccc2C2CC2)C(=O)N1C1CCN(c2c(F)cccc2Cl)CC1 (single isomer, unassigned) [Example 373]", "UniProt P21730", 1010],
  ["Cc1cccc(C)c1N1CCC(N2Cc3cn(C)nc3N(Cc3ccccc3C(F)(F)F)C2=O)CC1", "UniProt P21730", 19],
  ["Cc1cccc(F)c1N1CCC(N2Cc3cn(C(C)(C)CN)nc3N(Cc3ccccc3C(F)(F)F)C2=O)CC1", "UniProt P21730", 156],
  ["Cc1cccc(F)c1N1CCC(N2Cc3nn(CC4(F)CC4)cc3N(Cc3ncccc3C(F)(F)F)C2=O)CC1", "UniProt P21730", 3]
]}

----------
Listing of recorded IC50 by entry.
# system-under-test: C5AR1 (Homo sapiens)
# assay-explanation: In vitro assay: antagonism of C5a-induced beta-arrestin recruitment (PathHunter) in CHO-K1 C5AR1 beta-arrestin cell line
# experimental-conditions: antagonistic activity, 1-10 nM C5a agonist, geometric mean where several measurements, read-out: C5aR IC50
observable: IC50 (nM)

{"columns": ["compound", "system-under-test", "numeric-value"],
 "data": [
  ["Cn1cc2c(n1)N(Cc1ccccc1C(F)(F)F)C(=O)N(C1CCN(c3ncccc3F)CC1)C2", "C5AR1 (Homo sapiens)", 318],
  ["COc1nccc(C(F)F)c1N1CCC(N2C(=O)N(Cc3ccccc3C3CC3)c3nn(C)cc3C2C)CC1 (single isomer, unassigned)", "C5AR1 (Homo sapiens)", 286],
  ["Cc1cccc(F)c1N1CCC(N2Cc3cn(CC4CC4(F)F)nc3N(Cc3ccccc3C(F)(F)F)C2=O)CC1 (single isomer, unassigned) [Example 189]", "C5AR1 (Homo sapiens)", 10]
]}

----------
# system-under-test: UniProtKB P21730
# assay-explanation: In vitro assay: antagonism of C5a-induced beta-arrestin recruitment (PathHunter) in CHO-K1 C5AR1 beta-arrestin cell line
# experimental-conditions: antagonistic activity, 1-10 nM C5a agonist, geometric mean where several measurements, read-out: C5aR IC50
# Method: 5 μl Antagonist at 6-fold end concentration or DMSO control is added to assay medium and subsequently 5 μl 1-10 nM C5a agonist at 6 fold end concentration. Cells are centrifuged for 1 min at 1000 rpm and incubated for 1.5 hour in at 37° C. […] Plates are centrifuged for 1 min at 1000 rpm and incubated for 45 minutes at RT before being measured on a Fluostar Optima, BMG Labtech. IC50 values are calculated from a serial dilution range of antagonist using inhouse software and given in nmol/l. […]
pIC50: −log10 of the molar value.

{"columns": ["molecule", "pIC50"],
 "data": [
  ["COc1ncnc(OC)c1N1CCC(N2Cc3cn(C)nc3N(Cc3ccccc3C(F)(F)F)C2=O)CC1 [Example 100]", 6.47],
  ["Cc1cccc(F)c1N1CCC(N2Cc3cn(C4CN(c5nnc(C(F)(F)F)o5)C4)nc3N(Cc3ccccc3C(F)(F)F)C2=O)CC1 [Example 144]", 7.85],
  ["COCCN(C)CCn1cc2c(n1)N(Cc1ccccc1C(F)(F)F)C(=O)N(C1CCN(c3c(C)cccc3F)CC1)C2 [Example 74]", 7.59],
  ["CC1c2cn(C)nc2N(Cc2ccccc2C2CC2)C(=O)N1C1CCN(c2c(F)cccc2C2CC2)CC1 (single isomer, unassigned) [Example 326]", 6.45],
  ["CC1c2cn(C3CC3)nc2N(Cc2ccccc2C(F)(F)F)C(=O)N1C1CCN(c2c(F)cccc2C(F)F)CC1 (single isomer, unassigned) [Example 311]", 7.89],
  ["Cc1cccc(F)c1N1CCC(N2C(=O)N(Cc3ccccc3C(F)(F)F)c3cn(C4CC4)nc3C2C)CC1 (single isomer, unassigned) [Example 266]", 6.45]
]}

----------
# system-under-test: C5AR1 (Homo sapiens, UniProt P21730)
# Construct: host or cells: CHO-K1
# assay-explanation: In vitro assay: antagonism of C5a-induced beta-arrestin recruitment (PathHunter) in CHO-K1 C5AR1 beta-arrestin cell line
# Assay type: cell-based
# experimental-conditions: antagonistic activity, 1-10 nM C5a agonist, geometric mean where several measurements, read-out: C5aR IC50
# Experimental: 5 μl Antagonist at 6-fold end concentration or DMSO control is added to assay medium and subsequently 5 μl 1-10 nM C5a agonist at 6 fold end concentration. Cells are centrifuged for 1 min at 1000 rpm and incubated for 1.5 hour in at 37° C. […] Plates are centrifuged for 1 min at 1000 rpm and incubated for 45 minutes at RT before being measured on a Fluostar Optima, BMG Labtech. IC50 values are calculated from a serial dilution range of antagonist using inhouse software and given in nmol/l. […]
pIC50: −log10 of the molar value.

{"columns": ["compound", "pIC50"],
 "data": [
  ["Cc1cccc(F)c1N1CCC(N2Cc3n[nH]cc3N(Cc3ncccc3C(F)(F)F)C2=O)CC1", 7.64],
  ["Cc1cccc(F)c1N1CCC(N2Cc3cn(C(C)CN)nc3N(Cc3ccccc3C(F)(F)F)C2=O)CC1 (stereo not shown)", 6.17],
  ["Cc1cccc(F)c1N1CCC(N2Cc3nn(CC4CC4)cc3N(Cc3ccccc3C(F)(F)F)C2=O)CC1", 7.80],
  ["COc1nccc(C)c1N1CCC(N2Cc3cn(C)nc3N(Cc3ccccc3C(F)(F)F)C2=O)CC1", 7.85],
  ["CC(=O)N1CCCC1Cn1cc2c(n1)N(Cc1ccccc1C(F)(F)F)C(=O)N(C1CCN(c3c(C)cccc3F)CC1)C2 (stereo not shown)", 6.86],
  ["Cc1cccc(F)c1N1CCC(N2Cc3cn(CC4CCCN4C(=O)OC(C)(C)C)nc3N(Cc3ccccc3C(F)(F)F)C2=O)CC1 (stereo not shown)", 7.52],
  ["Cc1cccc(F)c1N1CCC(N2C(=O)N(Cc3ccccc3C(F)(F)F)c3nn(C4CCCCO4)cc3C2C)CC1 (stereo not shown)", 7.89]
]}

----------
# system-under-test: C5AR1 (Homo sapiens)
# Sequence (P21730 1-350): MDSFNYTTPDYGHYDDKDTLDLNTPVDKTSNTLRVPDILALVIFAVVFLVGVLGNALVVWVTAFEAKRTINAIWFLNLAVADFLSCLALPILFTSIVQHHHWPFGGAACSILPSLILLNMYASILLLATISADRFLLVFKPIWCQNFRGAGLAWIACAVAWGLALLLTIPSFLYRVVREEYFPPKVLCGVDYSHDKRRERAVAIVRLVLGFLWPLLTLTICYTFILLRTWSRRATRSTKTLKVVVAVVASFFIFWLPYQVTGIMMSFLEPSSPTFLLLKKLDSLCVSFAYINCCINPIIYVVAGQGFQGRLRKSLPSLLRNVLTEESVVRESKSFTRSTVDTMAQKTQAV
# assay-explanation: In vitro assay: antagonism of C5a-induced beta-arrestin recruitment (PathHunter) in CHO-K1 C5AR1 beta-arrestin cell line
# experimental-conditions: antagonistic activity, 1-10 nM C5a agonist, geometric mean where several measurements, read-out: C5aR IC50
pIC50: −log10 of the molar value.

{"columns": ["compound", "pIC50"],
 "data": [
  ["Cc1cccc(F)c1N1CCC(N2Cc3cn(C4CN(S(=O)(=O)N(C)C)C4)nc3N(Cc3ccccc3C(F)(F)F)C2=O)CC1 [Example 137]", 7.09],
  ["Cc1cccc(F)c1N1CCC(N2C(=O)N(Cc3ccccc3C(F)(F)F)c3cn(C4CC4)nc3C2C)CC1 (single isomer, unassigned) [Example 265]", 7.92],
  ["CC1c2nn(C3CC3)cc2N(Cc2ccccc2C(F)(F)F)C(=O)N1C1CCN(c2c(F)cccc2Cl)CC1 (single isomer, unassigned) [Example 328]", 8.00],
  ["Cc1cccc(F)c1N1CCC(N2Cc3cn(CC(C)F)nc3N(Cc3ccccc3C(F)(F)F)C2=O)CC1 (single isomer, unassigned) [Example 185]", 8.00],
  ["CC1c2c[nH]nc2N(Cc2ccccc2C(F)(F)F)C(=O)N1C1CCN(c2c(F)cccc2Cl)CC1 (single isomer, unassigned) [Example 351]", 6.11],
  ["COc1nccc(C)c1N1CCC(N2Cc3cn(COCC[Si](C)(C)C)nc3N(Cc3ccccc3C(F)(F)F)C2=O)CC1 [Example 196]", 7.96],
  ["CC1c2cn(C3CC3)nc2N(Cc2ccccc2C(F)(F)F)C(=O)N1C1CCN(c2c(F)cccc2Br)CC1 (single isomer, unassigned) [Example 361]", 7.89]
]}
